This collection of values is drawn from patent US20250034266A1.

Target or test system: T1, human CCR8 (human, UniProt P51685 1-355)
T1 construct: whole, on cells; also called hCCR8
T1 sequence (P51685 whole entry): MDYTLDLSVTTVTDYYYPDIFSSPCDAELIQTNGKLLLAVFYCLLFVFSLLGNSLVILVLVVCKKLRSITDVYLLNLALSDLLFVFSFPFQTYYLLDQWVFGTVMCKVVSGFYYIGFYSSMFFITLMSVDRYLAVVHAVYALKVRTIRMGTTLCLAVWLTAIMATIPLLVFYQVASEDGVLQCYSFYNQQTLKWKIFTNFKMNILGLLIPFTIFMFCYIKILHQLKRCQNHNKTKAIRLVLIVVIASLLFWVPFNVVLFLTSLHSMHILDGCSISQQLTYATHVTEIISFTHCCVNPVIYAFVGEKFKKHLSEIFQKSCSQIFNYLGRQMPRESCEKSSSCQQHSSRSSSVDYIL
Method: FACS, competition with CCL1 on CHO-K1-human CCR8 cells

Binder	Unit name	IC50
Hu149-24 (antibody, human IgG1, V domains shown, human IgG1) VH: EVQLVESGGGLVQPGGSLKLSCAASGFTFNTYAMNWVRQAPGKGLEWVGRIRSKSNFYATAYAASVKGRFTISRDDSKNTAYLQMNSLKTEDTAVYYCTRGKEYGSSYAMDYWGQGTLVTVSS VL: DIVMTQSPLSLPVTPGEPASISCRSSKSLLHSNANTYLYWFLQKPGQSPQLLIYRMSNLASGVPDRFSGSGSGTDFTLKISRVEAEDVGVYYCMQHLKYPLTFGGGTKVELK	nM	0.172
